System: KRAS patient-derived spheroids with HUVEC/MSC, viability
Test: Anticancer human tumor 941728-121-R-J1-PDC patient-derived lung adenocarcinoma cell line growth inhibition [KRAS2]; active means viability on the fitted dose curve at most 10% of control; inactive means the rest
Details: second compound 0.0316 µM; first compound 10 µM
Classes used: 1 = active, 0 = inactive

compound	class.label
O=C(c1cc(Cc2n[nH]c(=O)c3ccccc23)ccc1F)N1CCN(C(=O)C2CC2)CC1 + C=CC(=O)N1CCN(c2nc(OCC3CCCN3C)nc3c2CCN(c2cccc4cccc(C)c24)C3)CC1CC#N	0
COc1cc(Nc2ncc3c(n2)-c2ccc(Cl)cc2C(c2c(F)cccc2OC)=NC3)ccc1C(=O)O + C=CC(=O)N1CCN(c2nc(OCC3CCCN3C)nc3c2CCN(c2cccc4cccc(C)c24)C3)CC1CC#N	0
Cn1nccc1Nc1nccc(-c2cc3c(s2)C(C)(C)N(CCN2CCOCC2)C3=O)n1 + C=CC(=O)N1CCN(c2nc(OCC3CCCN3C)nc3c2CCN(c2cccc4cccc(C)c24)C3)CC1CC#N	0
CC1(C)CCC(CN2CCN(c3ccc(C(=O)NS(=O)(=O)c4ccc(NCC5CCOCC5)c([N+](=O)[O-])c4)c(Oc4cnc5[nH]ccc5c4)c3)CC2)=C(c2ccc(Cl)cc2)C1 + C=CC(=O)N1CCN(c2nc(OCC3CCCN3C)nc3c2CCN(c2cccc4cccc(C)c24)C3)CC1CC#N	1
CC1OCC2(CCN(c3cnc(Sc4ccnc(N)c4Cl)c(N)n3)CC2)C1N (stereo not given) + C=CC(=O)N1CCN(c2nc(OCC3CCCN3C)nc3c2CCN(c2cccc4cccc(C)c24)C3)CC1CC#N	0

* * *

Tested on: KRAS patient-derived spheroids with HUVEC/MSC, viability
Test: Anticancer human tumor 941728-121-R-J1-PDC cell line growth inhibition [KRAS2];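 further: spheroids exposed to agents for seven days before readout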
Conditions: second compound 0.1 µM; first compound 0.01 µM; stronger effect = lower value

compound	viability, T/C
CN(C)C/C=C/C(=O)Nc1cc2c(Nc3ccc(F)c(Cl)c3)ncnc2cc1O[C@H]1CCOC1 + C=CC(=O)N1CCN(c2nc(OCC3CCCN3C)nc3c2CCN(c2cccc4cccc(C)c24)C3)CC1CC#N	20.1%
CC1COCCN1c1cc(-c2ccnn2C)c2ccnc(-c3ccn[nH]3)c2n1 (stereo unspecified) + C=CC(=O)N1CCN(c2nc(=O)n(-c3c(C)ccnc3C(C)C)c3nc(-c4c(O)cccc4F)c(F)cc23)C(C)C1	23.9%
CN(C)C/C=C/C(=O)Nc1cc2c(Nc3ccc(F)c(Cl)c3)ncnc2cc1O[C@H]1CCOC1 + CC1OCC2(CCN(c3cnc(Sc4ccnc(N)c4Cl)c(N)n3)CC2)C1N	44.5%
CC1COCCN1c1cc(-c2ccnn2C)c2ccnc(-c3ccn[nH]3)c2n1 (stereo unspecified) + COc1cc2nc(C)nc(NC(C)c3cc(N)cc(C(F)(F)F)c3)c2cc1OC1CCOC1	56%
CC1COCCN1c1cc(-c2ccnn2C)c2ccnc(-c3ccn[nH]3)c2n1 (stereo unspecified) + CNCc1ccccc1-c1csc(C(C)Nc2nc(C)nc3cc(OC)c(OC)cc23)c1	63.1%
CC(=O)OC12COC1CC(O)C1(C)C(=O)C(O)C3=C(C)C(OC(=O)C(O)C(NC(=O)OC(C)(C)C)c4ccccc4)CC(O)(C(OC(=O)c4ccccc4)C21)C3(C)C (stereo unspecified) + CC1OCC2(CCN(c3cnc(Sc4ccnc(N)c4Cl)c(N)n3)CC2)C1N	42.3%
Cn1ncnc1[C@H]1c2n[nH]c(=O)c3cc(F)cc(c23)N[C@@H]1c1ccc(F)cc1 + COc1cc2nc(C)nc(NC(C)c3cc(N)cc(C(F)(F)F)c3)c2cc1OC1CCOC1	52.2%
CC(C)n1nc(-c2ccc3oc(N)nc3c2)c2c(N)ncnc21 + C=CC(=O)N1CCN(c2nc(OCC3CCCN3C)nc3c2CCN(c2cccc4cccc(C)c24)C3)CC1CC#N	15.9%
CN(C)C/C=C/C(=O)Nc1cc2c(Nc3ccc(F)c(Cl)c3)ncnc2cc1O[C@H]1CCOC1 + CNCc1ccccc1-c1csc(C(C)Nc2nc(C)nc3cc(OC)c(OC)cc23)c1	34.6%
CCN1CCN(Cc2ccc(Nc3ncc(F)c(-c4cc(F)c5nc(C)n(C(C)C)c5c4)n3)nc2)CC1 + CC1OCC2(CCN(c3cnc(Sc4ccnc(N)c4Cl)c(N)n3)CC2)C1N	40.5%
Cn1ncnc1[C@H]1c2n[nH]c(=O)c3cc(F)cc(c23)N[C@@H]1c1ccc(F)cc1 + CNCc1ccccc1-c1csc(C(C)Nc2nc(C)nc3cc(OC)c(OC)cc23)c1	44.4%

* * *

System: KRAS patient-derived spheroids with HUVEC/MSC, viability
Test: Anticancer human tumor 941728-121-R-J1-PDC cell line growth inhibition [KRAS2];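 further: spheroids exposed to agents for seven days before readout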
Details: second compound 10 µM; first compound 0.1 µM; stronger effect = lower value
A collection of compounds and their measured viability, T/C
measure.name: viability, T/C (%)

compound	endpoint.result
CC(=O)OC12COC1CC(O)C1(C)C(=O)C(O)C3=C(C)C(OC(=O)C(O)C(NC(=O)OC(C)(C)C)c4ccccc4)CC(O)(C(OC(=O)c4ccccc4)C21)C3(C)C (stereo not given) + C=CC(=O)N1CCN(c2nc(=O)n(-c3c(C)ccnc3C(C)C)c3nc(-c4c(O)cccc4F)c(F)cc23)C(C)C1	29.5
CC1(C)CCC(CN2CCN(c3ccc(C(=O)NS(=O)(=O)c4ccc(NCC5CCOCC5)c([N+](=O)[O-])c4)c(Oc4cnc5[nH]ccc5c4)c3)CC2)=C(c2ccc(Cl)cc2)C1 + COc1cc2nc(C)nc(NC(C)c3cc(N)cc(C(F)(F)F)c3)c2cc1OC1CCOC1	19.7
COC(=O)c1ccc2c(C(=Nc3ccc(N(C)C(=O)CN4CCN(C)CC4)cc3)c3ccccc3)c(O)[nH]c2c1 + COc1cc2nc(C)nc(NC(C)c3cc(N)cc(C(F)(F)F)c3)c2cc1OC1CCOC1	21.7
CCNC(=O)CC1N=C(c2ccc(Cl)cc2)c2cc(OC)ccc2-n2c(C)nnc21 (stereo not given) + CNCc1ccccc1-c1csc(C(C)Nc2nc(C)nc3cc(OC)c(OC)cc23)c1	0.89
Cn1ncnc1[C@H]1c2n[nH]c(=O)c3cc(F)cc(c23)N[C@@H]1c1ccc(F)cc1 + CC1OCC2(CCN(c3cnc(Sc4ccnc(N)c4Cl)c(N)n3)CC2)C1N	14.7
O=C(c1cc(Cc2n[nH]c(=O)c3ccccc23)ccc1F)N1CCN(C(=O)C2CC2)CC1 + CNCc1ccccc1-c1csc(C(C)Nc2nc(C)nc3cc(OC)c(OC)cc23)c1	0.09
O=C(c1cc(Cc2n[nH]c(=O)c3ccccc23)ccc1F)N1CCN(C(=O)C2CC2)CC1 + CC1OCC2(CCN(c3cnc(Sc4ccnc(N)c4Cl)c(N)n3)CC2)C1N	22.3
CC(C)n1nc(-c2ccc3oc(N)nc3c2)c2c(N)ncnc21 + C=CC(=O)N1CCN(c2nc(=O)n(-c3c(C)ccnc3C(C)C)c3nc(-c4c(O)cccc4F)c(F)cc23)C(C)C1	11.2
COc1cc2nccc(Oc3ccc(NC(=O)C4(C(=O)Nc5ccc(F)cc5)CC4)cc3)c2cc1OC + COc1cc2nc(C)nc(NC(C)c3cc(N)cc(C(F)(F)F)c3)c2cc1OC1CCOC1	2.98
CCNC(=O)CC1N=C(c2ccc(Cl)cc2)c2cc(OC)ccc2-n2c(C)nnc21 (stereo not given) + CC1OCC2(CCN(c3cnc(Sc4ccnc(N)c4Cl)c(N)n3)CC2)C1N	19.1

* * *

A collection of molecules and their measured viability, T/C
Tested on: KRAS patient-derived spheroids with HUVEC/MSC, viability
Assay: Anticancer human tumor 941728-121-R-J1-PDC cell line growth inhibition [KRAS2];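 further: spheroids exposed to agents for seven days before readout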
Details: second compound 0.0316 µM; first compound 10 µM; stronger effect = lower value

molecule	viability, T/C / %
CC(C)NCC(C(=O)N1CCN(c2ncnc3c2C(C)CC3O)CC1)c1ccc(Cl)cc1 (centres undefined) + C=CC(=O)N1CCN(c2nc(OCC3CCCN3C)nc3c2CCN(c2cccc4cccc(C)c24)C3)CC1CC#N	7.87
COC(=O)c1ccc2c(C(=Nc3ccc(N(C)C(=O)CN4CCN(C)CC4)cc3)c3ccccc3)c(O)[nH]c2c1 + C=CC(=O)N1CCN(c2nc(OCC3CCCN3C)nc3c2CCN(c2cccc4cccc(C)c24)C3)CC1CC#N	6.26
COc1cc2nccc(Oc3ccc(NC(=O)C4(C(=O)Nc5ccc(F)cc5)CC4)cc3)c2cc1OC + C=CC(=O)N1CCN(c2nc(OCC3CCCN3C)nc3c2CCN(c2cccc4cccc(C)c24)C3)CC1CC#N	7.62
CCNC(=O)CC1N=C(c2ccc(Cl)cc2)c2cc(OC)ccc2-n2c(C)nnc21 (centres undefined) + C=CC(=O)N1CCN(c2nc(OCC3CCCN3C)nc3c2CCN(c2cccc4cccc(C)c24)C3)CC1CC#N	14.9

* * *

System: KRAS patient-derived spheroids with HUVEC/MSC, viability
Assay: Anticancer human tumor 941728-121-R-J1-PDC cell line growth inhibition [KRAS2]; active means viability on the fitted dose curve at most 10% of control; inactive means the rest;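 further: spheroids exposed to agents for seven days before readout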
Settings: second compound 10 µM; first compound 0.316 µM
Classes used: label 1 (active), label 0 (inactive)

compound	class.label
COc1cc2nccc(Oc3ccc(NC(=O)C4(C(=O)Nc5ccc(F)cc5)CC4)cc3)c2cc1OC + CNCc1ccccc1-c1csc(C(C)Nc2nc(C)nc3cc(OC)c(OC)cc23)c1	label 1
Cn1nccc1Nc1nccc(-c2cc3c(s2)C(C)(C)N(CCN2CCOCC2)C3=O)n1 + C=CC(=O)N1CCN(c2nc(=O)n(-c3c(C)ccnc3C(C)C)c3nc(-c4c(O)cccc4F)c(F)cc23)C(C)C1	label 0
O=C(c1cc(Cc2n[nH]c(=O)c3ccccc23)ccc1F)N1CCN(C(=O)C2CC2)CC1 + CC1OCC2(CCN(c3cnc(Sc4ccnc(N)c4Cl)c(N)n3)CC2)C1N	label 0
COc1cc(Nc2ncc3c(n2)-c2ccc(Cl)cc2C(c2c(F)cccc2OC)=NC3)ccc1C(=O)O + CNCc1ccccc1-c1csc(C(C)Nc2nc(C)nc3cc(OC)c(OC)cc23)c1	label 1
CC1OCC2(CCN(c3cnc(Sc4ccnc(N)c4Cl)c(N)n3)CC2)C1N (stereo unspecified) + CNCc1ccccc1-c1csc(C(C)Nc2nc(C)nc3cc(OC)c(OC)cc23)c1	label 1
COC(=O)c1ccc2c(C(=Nc3ccc(N(C)C(=O)CN4CCN(C)CC4)cc3)c3ccccc3)c(O)[nH]c2c1 + C=CC(=O)N1CCN(c2nc(=O)n(-c3c(C)ccnc3C(C)C)c3nc(-c4c(O)cccc4F)c(F)cc23)C(C)C1	label 0
